Where these numbers come from: ChEMBL document CHEMBL3044971

# Test system: Trichoplusia ni
# Method Summary: Feeding deterrent activity against freshly molted third-instar larval stage of Trichoplusia ni (cabbage looper) in compound pretreated cabbage leaves at 50 ug/cm2 after 3 to 5 hr by leaf disk choice bioassay
# Format: functional
Rule: measured Activity below 70% gets YES; anything equal to or greater than 70% gets NO.

Inquiry: Quick check: does C=CCc1cccc(OCCC(C)C)c1OCCC have Activity under 70%?
Reply text: YES

Inquiry: Quick check: does C=CCc1ccc(OCC)c(OC)c1 [ETHYLEUGENOL] have Activity under 70%?
Reply text: YES

Inquiry: Quick check: does C=CCOc1c(CC=C)cccc1OCC have Activity under 70%?
Reply text: YES

Inquiry: Quick check: does C=CCOc1ccc(CC=C)cc1OC [ALLYLEUGENOL] have Activity under 70%?
Reply text: NO

Inquiry: Quick check: does C=CCc1cc(OCCCC)ccc1OCC have Activity under 70%?
Reply text: YES

Inquiry: Quick check: does C=CCc1cc(OCCC)ccc1OCCC(C)C have Activity under 70%?
Reply text: NO
